- System: MS2 coat protein
- PROCEDURE DETAILS: apparent Kd, MS2 coat protein; higher = weaker binding; RNA-MaP array; FMN 200 µM where present
- MEASUREMENT CONTEXT: ligand present: flavin mononucleotide; designed as: ON switch for flavin mononucleotide
REPORTED PROPERTY: apparent Kd (nM)
// return numeric value only (unit: nM, not printed)

Below, each entry is followed by its recorded apparent Kd result.
SEQ STRING	SYSTEM NAME	apparent Kd / nM
GUGGACGUCGUAGGAUAUGUAGGAUAUUCCUACAUGAGGAUCACCCAUGUUUACAUGGAAGAAGGACAGAAGGACGAUGUCCAG	MS2 coat protein	16.2
UGUUGUAUUACAGGAUAUCUAUGAUUUUUAUUAAGAGAAGGGUAUUCACAUGAGGAUCACCCAUGUAUAUACGAGGAAGUUGUG	MS2 coat protein	36
UUGGAGUUCGUAGGAUAUGUAGGAUAUUCCUACAUGAGGAUCACCCAUGUAUGCAUGGAAGAAGGACAGAAGGACGAGCUCCAU	MS2 coat protein	13
ACAGAGCCUGACAUGAGGAUCACCCAUGUUAGAUUGUUAUGUCAGGAUAUUGUCUAGCAACUAGACAAGAAGGGAUGCUCUGUG	MS2 coat protein	29.8
GUAGCUAUCGGAGGAUAUUCAUACUGGAAACGGACAUGAGGAUCACCCAUGUGGCGAAAGCCUUGGGAGAAGGUCGAUAGCUAC	MS2 coat protein	10.1
GGAGCACAUCAAUACAUGAGGAUCACCCAUGUCGAAUGAUAUGAGGAUAUGCAUCGGAAAACGAUGUAGAAGGCAUAGUGCUCC	MS2 coat protein	6.27

Kindly state the measured apparent Kd obtained for "AUGGUUGUCGUAGGAUAUGUAGGAUAUUCCUACAUGAGGAUCACCCAUGUUCGCAUGGAAGAAGGACAGAAGGACGAUGACCAG" with MS2 coat protein.
9.57

Return apparent Kd measured with MS2 coat protein given this sequence: "CGAGCUGCCAGAGGAUAAUGGACAUGAGGAUCACCCAUGUGUCAGGAUAUGGGUUUCACAUGGACUCAGAAGGGACCAGCCCGA"
30.2

What reported apparent Kd corresponds to "GACCCUAAUGAGAAGGUGUGUAUAAAUUAUAUACAAGGAUAUCGGUCGAGCGUGUUGACAUGAGGAUCACCCAUGUUGAGGGUU" on MS2 coat protein?
10.4

Please state recorded apparent Kd (tested on MS2 coat protein) of "UUAUCUCAUGAGAAGGACAUGAGGAUCACCCAUGUAGGAUAUCAUGGGUCAGAGGAAUUGAAUCUUCGGAUUCAAUUACUCUUC"
12.2

API: value(readout=apparent Kd, system=MS2 coat protein) for record "AACGGGUGGGUAGGAUAUGGCUAUGUCUCAUUGCUAGAAGGACCAGCUACUACAUGAGGAUCACCCAUGUCGUAGUGCACCCAG"
6.04
